Molecular target: T1, recombinant human EGFR extracellular domain with 6xHis (human, UniProt P00533 25-645)
T1 construct: In-house produced; also called 6xHis EGFR ECD; soluble human EGFR ECD; not shown: 6xHis tag
Assay: SPR competition, EGFR ECD first saturated with mix N=6 1261+1347+992+1024+1030+1361
Experimental: SPR analysis was performed on a Biacore 3000 machine containing four flow cells. A CM5 Biacore chip was conjugated with 10,000 Resonance units (Ru) polyclonal anti-His antibody to flow cells 1-4 according to the manufacturer's instructions. […] Immediately after antigen injection the maximal binding of the Anti-EGFR mAb without competition was established in each flow cell during a reference run. […]
% inhibition listing for selected binders.
Response body: numeric value in %, unit text excluded.

Here's what some known entries look like.
Lookup result for antibody 992 (antibody, human IgG1, kappa, V domains shown, Chimeric mouse/human IgG1 kappa; the VL entry includes the human kappa constant region) VH: EVQLQQPGSELVRPGASVKLSCKASGYTFTSYWMHWVKQRPGQGLEWIGNIYPGSRSTNYDEKFKSKATLTVDTSSSTAYMQLSSLTSEDSAVYYCTRNGDYYVSSGDAMDYWGQGTSVTVSS VL: DIQMTQTTSSLSASLGDRVTISCRTSQDIGNYLNWYQQKPDGTVKLLIYYTSRLHSGVPSRFSGSGSGTDFSLTINNVEQEDVATYFCQHYNTVPPTFGGGTKLEIKR ; measured % inhibition: 116

Lookup result for antibody 1261 (antibody, human IgG1, kappa, V domains shown, Chimeric IgG1 kappa) VH: EVQLVESGGGLVKPGGSLKLSCAVSGFTFSSYVMSWVRQTPEKRLEWVATITSGGRNIYYLDSVKGRFTISRDNAKNTLYLQMSSLRSEDTAMYYCARHEDYRYDGYYAMDYWGQGTSVTVSS VL: QIVLTQSPAIMSASPGEKVTITCSASSSVSYMHWFQQKPGTSPKLWIYSTSNLASGVPARFSGSGSGTSYSLTISRMEAEDAATYYCQQRSSYPYTFGGGTKLELKR ; measured % inhibition: 95

Lookup result for antibody 1347 (antibody, human IgG1, kappa, V domains shown, Chimeric IgG1 kappa) VH: QVQLKESGPGLVAPSQSLSITCTVSGFSLTGHGVNWVRQPPGKGLEWLGMIWGDGSTDYNSTLKSRLSISKDNSKSQVFLKMNSLQTDDTARYYCARGYGYLYYFDYWGQGTTLTVSS VL: ENVLTQSPAIMSASPGEKVTMTCRASSSVSSSYLHWYQQKSGASPKLWIYSTSNLASGVPARFSGSGSGTSYSLTVNSVETEDAATYYCHQYSGFPFTFGSGTKLELKR ; measured % inhibition: 80

---
Lookup result for antibody 1030 (antibody, human IgG1, kappa, V domains shown, Chimeric IgG1 kappa) VH: EVQLVESGGGLVKPGGSLKLSCAASGFTFSSYALSWVRQTPERRLEWVASISGVGSTYFPDSVKGRFTMSRDNARNILYLQMSSLRSEDTAMYYCARGSDGYFYAMDYWGQGTSVTVSS VL: DIVLTQSPASLAVSLGQRATISCRASKSVSTSGYSFMHWYQLKPGQPPKLLIYLASNLESGVPARFSGSGSGTDFTLNIHPVEEEDAATYYCQHSREFPLTFGGGTKLEIKR ; measured % inhibition: 87
